- Tested on: MS2 coat protein
- assayRemarks: apparent KD of MS2 coat protein; designed switch direction (-1 OFF switch, 1 ON switch): 1; higher = weaker reporter binding
- conditionSet: input ligand: FMN 200 uM
apparent KD of MS2 coat protein values by entry

>  <querySequence>
UGGUACAUGGGAGGAUAUGGAGUGAUGACAUGAGGAUCACCCAUGUUAUAUAUGCCGAGAGGCAACUAGAAGGCCCAUGUACCU [JL SSNG1 3.97] (Eterna round: R96, puzzle: Same State NG 2)

>  <apparent KD of MS2 coat protein [nM]>
19.4

$$$$
>  <querySequence>
AUAGUUGCCGAAGGAUAUGAUGAGGAUCACCCAUCAGAAGGUCGGCUAUUGGGUGGAUAUGAGGAUCACCCGUGUUCUUUGGUC (Eterna round: R96, puzzle: Same State NG 1)

>  <apparent KD of MS2 coat protein [nM]>
22.4

$$$$
>  <querySequence>
UUGGUACAUGAGGAUCACCCAUGUGGGUCGGUCGCAGGAUAUGCCCGUGGGCGCUUGCGGGCAGAAGGGUGCCGUA [Same State1-X] (Eterna round: R96, puzzle: Same State 1)

>  <apparent KD of MS2 coat protein [nM]>
173

$$$$

###

// reported apparent KD of MS2 coat protein per item
- System: MS2 coat protein
- assayRemarks: apparent KD of MS2 coat protein; designed switch direction (-1 OFF switch, 1 ON switch): -1; higher = weaker reporter binding
- conditionSet: input ligand: microRNA oligo, concentration not stated

>  <querySequence>
UUUGUUUGCACAGGAUAUUGUUAUUUUAUUUUUCAAGAAGGGUGUACAUGAGGAUCACCCAUGUUAAGGUUUAAUCUUUCACUU [JR_ExcNG1_Sub010] (Eterna round: R96, puzzle: Exclusion NG 1)

>  <apparent KD of MS2 coat protein (nM)>
479

$$$$
>  <querySequence>
UGAUCUAGCGGAGGAUAUACAUGAGGAUCACCCAUGUAAGUCGCCUUACCGUAGUGAAGCAUCAUGUAGAAGGCCGCUAGAUCU [MOD4 ENG2 3.62 by JL (unstable but ms2 present in dot)] (Eterna round: R96, puzzle: Exclusion NG 2)

>  <apparent KD of MS2 coat protein (nM)>
19.9

$$$$
>  <querySequence>
UUAGAAAGGUUAGGAUAUUAAUUAUUGUAUAGUAUGAUCUACAUGAGGAUCACCCAUGUUAAAUAUAAGAAGGAACGUUAGAUU [JR_ExcNG2_Sub093] (Eterna round: R96, puzzle: Exclusion NG 2)

>  <apparent KD of MS2 coat protein (nM)>
39.9

$$$$
>  <querySequence>
CCCAGUUAGGAAGGAUAUUGUACAUGAGGAUCACCCAUGUAAUAAAUGAGGAUCUCGGGUGUCUACAAGAAGGUCCGGAUAGGC [Ostracism 12 - Jieux - Exclusion NG 2] (Eterna round: R96, puzzle: Exclusion NG 2)

>  <apparent KD of MS2 coat protein (nM)>
38.7

$$$$

###

- Test system: MS2 coat protein
- assayRemarks: apparent KD of MS2 coat protein; designed switch direction (-1 OFF switch, 1 ON switch): 1; higher = weaker reporter binding
- conditionSet: input ligand: microRNA oligo, concentration not stated
assayEndpoint: apparent KD of MS2 coat protein (µM)

>  <querySequence>
GUUGAGAAAUAAGGAUAUACAUGGAAGACACAUGAGGAUCACCCAUGUGGGAGGGAAACCAGGAGGUAGAAGGUAUUGGGAAAC [AK SSNG2-V2-23] (Eterna round: R96, puzzle: Same State NG 2)

>  <unitName>
µM

>  <numericResult>
0.0241

$$$$
>  <querySequence>
GUGGUCAGACAUGAGGAUCACCCAUGUGGAAUAAAUAAGGAAAAGGAUAUUCAAUAUAGGAUAUAGAAGAAGGUUUGGUUGGUG (Eterna round: R96, puzzle: Same State NG 3)

>  <unitName>
µM

>  <numericResult>
0.0735

$$$$
>  <querySequence>
AAACUCGUUGAAGGAUAUCCGGCAGCUAACAAACCGUAACAUGAGGAUCACCCAUGUGUUAGAAAGGAGAAGGUCAGUGACCGG [Eternabot solution 34] (Eterna round: R96, puzzle: Same State NG 2)

>  <unitName>
µM

>  <numericResult>
0.0159

$$$$

###

- Tested on: K4 kissing-loop RNA reporter;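 further: bound reporter read as fluorescence of individual clusters on recovered sequencing chips by microscopy, with normalized cluster intensities fitted with a binding model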
- assayRemarks: apparent KD of K4 kissing-loop reporter; higher = weaker reporter binding
- conditionSet: Eterna round: R107; input ligand: tryptophan 2.4 mM
// values below are reported apparent KD of K4 kissing-loop reporter

>  <querySequence>
GGCUUAUUCUAUGAUACCAGCGUCACAUCGGGACUGCGCACGCAGCAGGCGAGUGAUGUUCGCCCUUGGCAGCAUCUCGGCGACU [theeternabot_exclusion_KL_Theo_B_26]

>  <apparent KD of K4 kissing-loop reporter [nM]>
232

$$$$
>  <querySequence>
UAGGGUUGAAAAGGAUAUUUACCCUAUGUCAACGAGUGAUGUUCGUGGACAUUAGGCACAACUCGUAAAGAAGGUUUCCAGACUC [theeternabot_sameState_KL_FMN_B_39]

>  <apparent KD of K4 kissing-loop reporter [nM]>
95.7

$$$$
>  <querySequence>
AAAUGUUUGUAUUUGAACAAUUUCUUUAGGGAGGAUAUUGGUAAUACAAGAAGGCCCUGAUGGGAGUGAUGUUCCCAUAACGCGG [Exclusion FMN A GF15]

>  <apparent KD of K4 kissing-loop reporter [nM]>
62.1

$$$$

###

Recorded apparent KD of MS2 coat protein for the following sequences
- Test system: MS2 coat protein
- assayRemarks: apparent KD of MS2 coat protein; designed switch direction (-1 OFF switch, 1 ON switch): 1; higher = weaker reporter binding
- conditionSet: input ligand: microRNA oligo, concentration not stated
assayEndpoint: apparent KD of MS2 coat protein (µM)

>  <querySequence>
UUGAAGAAUUAAGGAUAUCGAGUCGUCUAAUUAAACAUGAGGAUCACCCAUGUGGGUUGCGGUAUCGAGAAGGUAAAUUACUAG [JL JR Sub099 mod 3] (Eterna round: R96, puzzle: Same State NG 2)

>  <unitName>
µM

>  <numericResult>
0.0228

$$$$
>  <querySequence>
GCUAGGAAUUAAGCCAACAUGAGGAUCACCCAUGUAUGUUGGUAGGAUAUCGUUUGCUUUGCAAACGAGAAGGGCUAACCUAGC [JL SSNG3 1.25] (Eterna round: R96, puzzle: Same State NG 3)

>  <unitName>
µM

>  <numericResult>
0.0504

$$$$
>  <querySequence>
AUCAUUUAUGCAGGAUAUGAUUAACAUGAGGAUCACCCAUGUGGUGUUGUGAGUAAGGAGAGUGAUCAGAAGGGCAUUUUUUUU [JMF's solution 72] (Eterna round: R96, puzzle: Same State NG 2)

>  <unitName>
µM

>  <numericResult>
0.296

$$$$
>  <querySequence>
UUGAAGAAUAUAGGAUAUUGAAUACAUAUGUUUAACAUGAGGAUCACCCAUGUGGGUUGCGGUAUCGAGAAGGAUAAAUAAAAG [Mat - Same State NG 2 - JL mod - D14] (Eterna round: R96, puzzle: Same State NG 2)

>  <unitName>
µM

>  <numericResult>
0.162

$$$$
>  <querySequence>
GGAUGAUAGACAGGAUAUUGAUUGUAAUUUUGUCAAGAAGGGUCUUUGAUUUAAACGACCAGUUACAUGAGGAUCACCCAUGUU [JR_SSNG1_Sub030] (Eterna round: R96, puzzle: Same State NG 1)

>  <unitName>
µM

>  <numericResult>
0.0276

$$$$

###

- System: MS2 coat protein
- assayRemarks: apparent KD of MS2 coat protein; designed switch direction (-1 OFF switch, 1 ON switch): 1; higher = weaker reporter binding
- conditionSet: input ligand: FMN 200 uM
# cutoff 100 nM applies to apparent KD of MS2 coat protein; >= gives Satisfied, < gives Not satisfied

>  <querySequence>
CUGAGAAGUCAAGGAUAUCACGUCGAUUAGACGUGAGAAGGUGAUCAUUACAUGAGGAUCACCCAUGUGUUACAUGGAGCUCAG [Brourd's SSNG1/1-A2 mod 6] (Eterna round: R96, puzzle: Same State NG 1)

>  <discreteLabel>
Satisfied

$$$$
>  <querySequence>
GGACGUCGAUUUCCUACUUAAACAUGAGGAUCACCCAUGUCACAGGAUAUGAGUCCGAUUAGGACUCAGAAGGGUGCGACGUCC [Fiskers NG3ss - 52] (Eterna round: R96, puzzle: Same State NG 3)

>  <discreteLabel>
Not satisfied

$$$$
>  <querySequence>
AGCCGAGACACAGGAUAUACAUGUUUACAUGAGGAUCACCCAUGUAGCAACACGUGGUAGUGAUUGUAGAAGGGUGCUCGGCGC [Omei SS(NG)2 Cv12] (Eterna round: R96, puzzle: Same State NG 2)

>  <discreteLabel>
Not satisfied

$$$$
>  <querySequence>
UAGGGACAUGAGGAUCACCCAUGUGCCUCAUAUGGAGAAACUCAGGAUAUGCUGAGGAUCACCCGGCAGAAGGGAGAUUUGACC (Eterna round: R96, puzzle: Same State NG 3)

>  <discreteLabel>
Not satisfied

$$$$
>  <querySequence>
GUUACAUGAGGAUCACCCAUGUAUGUGUGGGAGUAAGUGUCUUAGGAUAUCUAUCAUUAAAUUUAAGAGAAGGAAGAUUGUUGU [JMF's solution 91] (Eterna round: R96, puzzle: Same State NG 3)

>  <discreteLabel>
Satisfied

$$$$
>  <querySequence>
UAAUUAAGUCAAGGAUAUCACGUCGAAUAGACGUGAGAAGGUGAUUAAUACAUGAGGAUCACCCAUGUAAUACAUGAAUAAUUA [SSNG1/11-B1] (Eterna round: R96, puzzle: Same State NG 1)

>  <discreteLabel>
Not satisfied

$$$$
>  <querySequence>
GAGAGAGGGUGAGGAUAUUCGGUGAUAAUGAUGGGAGAAGGCACAGACAUGAGGAUCACCCAUGUGGGAAUAAUCCAGAGAGAG [Parity 12 - Jieux - Same State NG 1] (Eterna round: R96, puzzle: Same State NG 1)

>  <discreteLabel>
Satisfied

$$$$
>  <querySequence>
GACCGCGAGGAAGGAUAUGGAGCCUUAUUGGCUCCAGAAGGUCCAUAAGGGACAUGAGGAUCACCCAUGUGGGUUGAAGCGGUC [Fiskers NG1ss - 35] (Eterna round: R96, puzzle: Same State NG 1)

>  <discreteLabel>
Not satisfied

$$$$
>  <querySequence>
AGGGUACAUGAGGAUCACCCAUGUGGGUCGGUCGCAGGAUAUGCCCGUGGGCGCUGGCGGGCAGAAGGGUGCCGAA [Same State1-IX] (Eterna round: R96, puzzle: Same State 1)

>  <discreteLabel>
Not satisfied

$$$$
>  <querySequence>
GAGUAGUUGAAAGGAUAUUGAUUGUUGUAGGAUCAAGAAGGUUCUAACAUGAGGAUCACCCAUGUAGGACUAUUCCUGUGUAUC [Parity 86 - Jieux - Same State NG 1] (Eterna round: R96, puzzle: Same State NG 1)

>  <discreteLabel>
Not satisfied

$$$$
>  <querySequence>
GUAGCAUACCGAGGAUAUUCAUAUACAUGAGGAUCACCCAUGUUGGCCAGCAUUAGCUGGCCUUGGGAGAAGGCGGAAUGCUAC [Xeonanis - 20 Mod50] (Eterna round: R96, puzzle: Same State NG 2)

>  <discreteLabel>
Not satisfied

$$$$
>  <querySequence>
GAGUGGCAGUUAGGAUAUAUAGUGAUAAUCACAAUAGAAGGAACAGACAUGAGGAUCACCCAUGUAGGACUAAUCCAGAGAGAG [Parity 37 - Jieux - Same State NG 1] (Eterna round: R96, puzzle: Same State NG 1)

>  <discreteLabel>
Not satisfied

$$$$
>  <querySequence>
UUGAGAAAUUAAGGAUAUUGAGUACAUAUGUUUAACAUGAGGAUCACCCAUGUGGGUUGCGGUAUCGAGAAGGUAAAUUACUAG [Mat - same State NG 2 - JL mod - D72] (Eterna round: R96, puzzle: Same State NG 2)

>  <discreteLabel>
Satisfied

$$$$
>  <querySequence>
CCGUAGAUGGUAGGAUAUGGAGCCUUAUUGGCUCCAGAAGGAUCGAAACAUGAGGAUCACCCAUGUUCGGCGGUCAAUAGACCG [Eli NG1ss - 85] (Eterna round: R96, puzzle: Same State NG 1)

>  <discreteLabel>
Not satisfied

$$$$
>  <querySequence>
CGCCAGAGAACAGGAUAUGGGCCGCGGCCUAUGGGCUGCUAACUCACAUGAGGAUCACCCAUGUCCCAGAAGGGUUCCUGGCGG [Xediat] (Eterna round: R96, puzzle: Same State NG 2)

>  <discreteLabel>
Satisfied

$$$$
>  <querySequence>
GUUACAUGAGGAUCACCCAUGUAUGUGUGGGAGUAAGUGUCUUAGGAUAUCUAUGAUUUAAGUUAAGAGAAGGAAGAUUGUUGU [JMF's solution 80] (Eterna round: R96, puzzle: Same State NG 3)

>  <discreteLabel>
Satisfied

$$$$
>  <querySequence>
GAGUUACAUGAGGAUCACCCAUGUUGUUUUGGAUAAGGAUAUAUGGUAGGAAGAGGAAUGAUAGAAGGUAUUAGGG [JR_SS1_Sub063] (Eterna round: R96, puzzle: Same State 1)

>  <discreteLabel>
Not satisfied

$$$$
>  <querySequence>
UUUAGUUGCGCGCAGGAUAUGUAUUAAUAUACAUGAGGAUCACCCAUGUGAGACCAAAUAGGUCUACAGAAGGGCGAAUCGCGAC [Laonerce - 29] (Eterna round: R96, puzzle: Same State 2)

>  <discreteLabel>
Not satisfied

$$$$
